Where do the numbers come from? From PubChem BioAssay (NCI).

- System: IGROV1 ovarian
- Protocol details: NCI-60 one-dose screen, 48 h
- Particulars: 10 µM unless noted
The panel holds about 83,000 compounds, 20% with a hit somewhere; the sample as a whole holds those more often. Calls of active or inactive are those of the source. How the source made its calls: active means growth percent below 10; inactive means the rest.
Field 'call' accepts Y = active, N = inactive

Below, 3 molecules whose answers are already recorded.
N#CCc1ncc(-c2ccc(C(F)(F)F)cc2)c(NC2CCCCCC2)n1 | N
COc1cc([C@@H]2c3cc4c(cc3[C@H](O)[C@H]3COC[C@@H]23)OCO4)cc(OC)c1OC | N
O=C(/C=C/c1ccc(Br)cc1)c1ccccc1 | N

What did the test return for `O=C(Nc1ccc(-n2cc(-c3ccncc3)c(-c3ccc(Cl)c(O)c3)n2)cc1)c1cc(Cl)cc(Cl)c1` ?
N

Tell me the assay call for `O=c1[nH]c(=S)[nH]c(O)c1/C=C1\C=Nc2ccccc21` please.
N

Which outcome did this test record for the molecule Cc1c([C@H](C(Cl)Cl)[C@H](O)[C@H]2C[C@H](C)C(=O)O2)ccc2c1C(=O)[C@H]1[C@H]2C[C@@H](Br)[C@@]23O[C@@H](CO[C@H]2O)CC13C (some centres not stated) ?
N

Identify the outcome logged in this assay for the molecule shown: `COc1ccc(-c2nc(Nc3nc4ccccc4[nH]3)nc(N)c2C#N)cc1`
N

Short answer needed: outcome of this test for `O=C1/C(=C/c2ccc(Cl)cc2)CCC/C1=C\c1ccc(Cl)cc1` ?
N

Which outcome was entered for the molecule `C=C(NC(=O)[C@H](C(C)C)N(C)c1cccc2[nH]ccc12)C(=O)OC` in this test?
N

Kindly provide the recorded test outcome for the following molecule: `O=C(/C=C1\C(=O)N(Cc2ccc([N+](=O)[O-])cc2)c2ccccc21)c1ccc(OCCN2CCCC2)cc1`
N

Identify the outcome logged in this assay for the molecule shown: `[N-]=[N+]=Nc1ncc(-c2ccc(C(F)(F)F)cc2)c(NC2CCCCCC2)n1`
N

Hello, I am checking results. What call was entered for `CCCCCCCCc1ccc(CCC(N)(CO)CO)cc1` ?
Y

Outcome logged for O=C(OCC1CC2(Cl)C(Cl)=C(Cl)C1(Cl)C2(Cl)Cl)C1C(C(=O)OCC2CC3(Cl)C(Cl)=C(Cl)C2(Cl)C3(Cl)Cl)C2(Cl)C(Cl)=C(Cl)C1(Cl)C2(Cl)Cl (configuration not stated) in this assay:
N

---

- Tested on: CAKI-1 renal
- Protocol details: NCI-60 one-dose screen, 48 h (100 = growth as untreated, 0 = no growth, -100 = all killed)
- Particulars: 10 µM unless noted
Compounds without any hit were thinned out: in the full panel of roughly 83,000, 20% have a hit. Calls of active or inactive are those of the source. The calls were made as follows: active = growth percent below 10; inactive = the rest.
Readout kind: growth

// solved cases for growth follow
COc1cc2ncnc(-n3ncc4cc(NC(=O)Nc5ccccc5)ccc43)c2cc1OC | 16.1% (inactive)
C=CC1CN2CCC1CC2C(O)c1ccnc2ccc(OC)cc12 (stereo unspecified) | 103% (inactive)
Oc1ccccc1/C=N/N=C/c1c(O)ccc2ccccc12 | 91.6% (inactive)
Br/C(=N\Nc1nn[nH]n1)c1ccccc1 | 92.5% (inactive)
CC(=O)NNC(=O)c1sc(NC(C)=O)nc1C | 115% (inactive)

Field request: growth | item: `CCCC(=O)NNc1[nH]c(-c2cc(OC)c(OC)c(OC)c2)cc1C(=O)OCC`
73.1% (inactive)

---

- Test system: SF-539 CNS
- Protocol details: NCI-60 one-dose screen, 48 h (100 = growth as untreated, 0 = no growth, -100 = all killed)
- Particulars: 10 µM unless noted
The panel holds about 83,000 compounds, 20% with a hit somewhere; the sample as a whole holds those more often.
// label = 1 if growth is not less than 90%, otherwise -1

Worked cases, answers included:
CC(C)C(=O)c1ccc(Cl)s1 | 1
Cc1nn(-c2ccccc2)c(N)c1N=C1NC(=O)/C(=C/c2ccc(Cl)cc2)S1 | -1
Nc1nc2c(c3cnccc13)C(c1cccc(Cl)c1)Cc1cnccc1-2 (centres undefined) | -1

Is reported growth greater than or equal to 90% here: CCC(C)C1NC(=O)C(CCCCN)NC(=O)C(CCCCN)NC(=O)C(CC(C)C)NC(=O)C(CCCCN)NC(=O)C(C(C)CC)NC(=O)C(C(C)C)NC(=O)C(C(C)CC)NC(=O)C(CCCCN)NC(=O)C(CCCCN)NC(=O)C(C)NC(=O)C(CCCCN)NC(=O)C(CC(C)C)NC1=O (centres undefined)
-1

Hello, I need to know if `S=C(N/N=C/c1cc(Cl)cc(Cl)c1)NC12CC3CC(CC(C3)C1)C2` has measured growth not below 90%. Thanks!
-1

Determine whether this compound has growth no lower than 90%: `Cc1nc2c(nnn2-c2ccccc2)c2nc(-c3ccccc3)oc(=O)c12`
1

Given `COc1cc2ncnc(-n3ncc4cc(NC(=O)Nc5ccc(Cl)c(C)c5)ccc43)c2cc1OC` , state whether its growth is at least 90%.
-1

Identify whether the reported growth of the following compound is 90% or greater: `N#CCCCCCCCCCCC#N`
1

Quick check, growth >= 90%? `C#CCCCCCCC[C@@H]1OC(=O)[C@H]([C@@H](C)CC)NC(=O)[C@@H]([C@@H](C)CC)NC(=O)CC(=O)[C@@H]1C`
1

Test whether the compound `COC(=O)c1cc(Nc2ccc(O)c3c2C(=O)c2c([N+](=O)[O-])ccc(O)c2C3=O)cc(C(=O)OC)c1` records growth of 90% or higher.
-1

Reported growth at or above 90%? `O=C(CCl)NC1c2ccccc2Oc2ccccc21`
-1

---

- System: SF-539 CNS
- Protocol details: NCI-60 one-dose screen, 48 h (100 = growth as untreated, 0 = no growth, -100 = all killed)
- Particulars: 10 µM unless noted
Compounds without any hit were thinned out: in the full panel of roughly 83,000, 20% have a hit.
Readout kind: growth (%)
# number only, unit % dropped from output

CCCCCCCCCC(C)NC(=O)CCl (stereo not given) | 99.9
Cc1ccc(NCc2cn(-c3ccc(C(=O)O)cc3)nc2-c2ccc(C(=O)O)cc2)cc1 | 101
COC(=O)c1cc(O)c2cc3c(cc2c1-c1cc(OC)c(OC)c(OC)c1)OCO3 | 13.3

Please give the measured growth for this compound: `COc1cc(-c2nn(-c3ccc(NC(=O)c4cc(Cl)cc(Cl)c4)cc3)cc2-c2ccncc2)ccc1Cl`
60.2

Endpoint output: growth of `COc1ccc(OC)c(Cn2cc3c(c2-c2ccccc2)CCc2cnoc2-3)c1` . Value?
54.9

---

- Tested on: UO-31 renal
- Protocol details: NCI-60 one-dose screen, 48 h
- Particulars: 10 µM unless noted
This is part of a sample that, as a whole, favours compounds with a hit. Of some 83,000 tested, about 20% had one in any assay. The source made the active and inactive calls. Rule for the calls: active = growth percent below 10; inactive = the rest.
Allowed answers: active, inactive

Solved entries:
COc1ccc(Cn2cc3c(c2-c2ccccc2)CCc2cnoc2-3)cc1OC | inactive
O=S(=O)(O)CCI | inactive
CCOc1ccc(N(C)c2ccc(/C=C/C3=[N+](C)c4ccccc4C3(C)C)cc2)cc1 | active
COC(=O)C1CC(=O)N(C(=O)Nc2ccc(Cl)cc2Cl)C1 (stereo not given) | inactive

Write down the call the test reported for this compound. Item: `Cn1c2c(cc(S(=O)(=O)c3ccccc3)c1=O)CCc1c-2cnn1-c1ccc(Cl)cc1`
active

What classification did `COc1cc(CNC(=O)CCCC/C=C/C(C)C)ccc1OCc1nnc(Nc2ccccc2F)o1` end up with in this test?
inactive

What outcome does the record of this test show for `C[C@]12C=CC(=O)C=C1[C@@H](F)C[C@@H]1[C@@H]2[C@@H](O)C[C@@]2(C)[C@H]1CC[C@]2(O)C(=O)CO` ?
inactive

I would be grateful if you could indicate the recorded call for `CC(=O)Nc1nc(C)c(C(=O)N/N=C/N2CCCCC2)s1` .
inactive

What call does the record list for `BrCCCOc1ccc(Oc2ccc(OCCCBr)cc2)cc1` ?
inactive

// param item: COc1cc2cc3cc4cc(OC)c(OC)cc4c(C)[n+]3cc2cc1OC (tested in a mixture with another compound) ; yields the recorded call
inactive

---

Measured growth by item
- Tested on: SF-268 CNS
- Protocol details: NCI-60 one-dose screen, 48 h (100 = growth as untreated, 0 = no growth, -100 = all killed)
- Particulars: 10 µM unless noted
The panel holds about 83,000 compounds, 20% with a hit somewhere; the sample as a whole holds those more often. Calls of active or inactive are those of the source. How the source made its calls: active means growth percent below 10; inactive means the rest.

Below: 5 molecules and their reported growth.
N#Cc1ccc(NC2c3ccccc3CC2O)cc1 (stereo unspecified) | 115% (inactive)
O=C(NCCCl)Nc1nccnc1OCc1ccc(F)cc1 | 99.2% (inactive)
CC/C(=N\Nc1nc2ccccc2n1C)c1ccccn1 | 3.39% (active)
CC(=O)Nc1nc(C)c(C(=O)NNS(=O)(=O)c2ccccc2)s1 | 117% (inactive)
Cc1c(C(N)=O)sc2c1c(=O)n(Cc1ccccc1)c1nnc(S(C)(=O)=O)n21 | 96.7% (inactive)

# lookup: growth of `CCCCCSc1ccc2nc(NC(=O)OCCC)sc2c1`
55.2% (inactive)
